assay: Molar enthalpy of transition or fusion; conditions: Crystal; DSC
parameter: Molar enthalpy of transition or fusion
// return the numeric value with its unit appended

Here are 3 molecules together with their reported answers.
[[record]]
line_notation = "Oc1ccc(Br)cc1"
parameter = "Molar enthalpy of transition or fusion"
result = "4.04 kcal/mol"

[[record]]
line_notation = "Oc1ccc(F)cc1"
parameter = "Molar enthalpy of transition or fusion"
result = "3.47 kcal/mol"

[[record]]
line_notation = "Oc1ccc(I)cc1"
parameter = "Molar enthalpy of transition or fusion"
result = "4.97 kcal/mol"


Reported Molar enthalpy of transition or fusion, molecule "Oc1ccc(Cl)cc1" : ____
3.35 kcal/mol
